# System: A549
# assay.name: Cytotoxicity against human A549 cells after 96 hrs by SRB assay
# Type: functional, cell-based
# reported.conditions: A549, 96 h
recorded.metric: pEC50
Scale explanation: pEC50 corresponds to minus log10 of a concentration expressed in moles per litre.

Worked set:
smiles.record	value
CC(=O)[C@@H]1CC[C@]2(C(=O)NCCN(C)C)CC[C@]3(C)[C@H](CC[C@@H]4[C@@]5(C)CC[C@H](O)C(C)(C)[C@@H]5CC[C@]43C)[C@@H]12	5.29
CC(=O)O[C@H]1CC[C@]2(C)[C@H]3CC[C@@H]4[C@H]5[C@H](/C(C)=N\O)CC[C@]5(C(=O)OCc5ccccc5)CC[C@@]4(C)[C@]3(C)CC[C@H]2C1(C)C	4.95

Look up pEC50 with A549 for this molecule: `CC(=O)[C@@H]1CC[C@]2(C(=O)OCc3ccccc3)CC[C@]3(C)[C@H](CC[C@@H]4[C@@]5(C)CC[C@H](N)C(C)(C)[C@@H]5CC[C@]43C)[C@@H]12`
5.68

Look up pEC50 with A549 for this molecule: `CC(=O)OC[C@]12CC[C@@H]([C@@H](C)N)[C@@H]1[C@H]1CC[C@@H]3[C@@]4(C)CC[C@H](OC(C)=O)C(C)(C)[C@@H]4CC[C@@]3(C)[C@]1(C)CC2`
5.64

Look up pEC50 with A549 for this molecule: `CC(=O)O[C@H]1CC[C@]2(C)[C@H]3CC[C@@H]4[C@H]5[C@H]([C@H](C)N)CC[C@]5(C(=O)OCc5ccccc5)CC[C@@]4(C)[C@]3(C)CC[C@H]2C1(C)C`
5.48

Look up pEC50 with A549 for this molecule: `CC(=O)O[C@H]1CC[C@]2(C)[C@H]3CC[C@@H]4[C@H]5[C@H](C(C)=O)CC[C@]5(C(=O)NCCN5CCCC5)CC[C@@]4(C)[C@]3(C)CC[C@H]2C1(C)C`
5.54

Look up pEC50 with A549 for this molecule: `COC(=O)[C@]12CC[C@@H](NC(C)=O)[C@@H]1[C@H]1CC[C@@H]3[C@@]4(C)CC[C@H](OC(C)=O)C(C)(C)[C@@H]4CC[C@@]3(C)[C@]1(C)CC2`
4.56

Look up pEC50 with A549 for this molecule: `CC(=O)[C@@H]1CC[C@]2(C(=O)NCCN)CC[C@]3(C)[C@H](CC[C@@H]4[C@@]5(C)CC[C@H](O)C(C)(C)[C@@H]5CC[C@]43C)[C@@H]12`
5.59

Look up pEC50 with A549 for this molecule: `COC(=O)[C@]12CC[C@@H]([C@H](C)N)[C@@H]1[C@H]1CC[C@@H]3[C@@]4(C)CC[C@H](OC(C)=O)C(C)(C)[C@@H]4CC[C@@]3(C)[C@]1(C)CC2`
5.18

Look up pEC50 with A549 for this molecule: `COC(=O)[C@]12CC[C@@H](/C(C)=N/O)[C@@H]1[C@H]1CC[C@@H]3[C@@]4(C)CC[C@H](OC(C)=O)C(C)(C)[C@@H]4CC[C@@]3(C)[C@]1(C)CC2`
5.09
